Experiment: in vivo
Details: male, Sprague-Dawley, rat, ip, 10 mg/kg
measured.metric: half-life (h)
Answers are plain numbers, in h.

Challenge: // query half-life value for entry Cc1cccc(-c2ccc(-c3cc4cnc(NC5CC5)nc4n(CCCCCC(=O)NO)c3=O)c(Cl)c2)n1
Response given: 1.4

###

Test: in vivo
Settings: male, Sprague-Dawley, rat, ip, 10 mg/kg
measured.metric: AUC(0-inf) (ng·h/mL)
Answers are plain numbers, in ng·h/mL.

Challenge: Would you mind telling me what AUC(0-inf) value was observed for Cc1cccc(-c2ccc(-c3cc4cnc(NC5CC5)nc4n(CCCCCC(=O)NO)c3=O)c(Cl)c2)n1 [ZMF-25] ?
Response given: 9100

###

Assay: in vivo
Settings: male, Sprague-Dawley, rat, ip, 10 mg/kg
measured.metric: Cmax (ng/mL)
Numbers only, in ng/mL.

Challenge: Item under review: Cc1cccc(-c2ccc(-c3cc4cnc(NC5CC5)nc4n(CCCCCC(=O)NO)c3=O)c(Cl)c2)n1 . Reported Cmax?
Response given: 5110
